tested on: Streptococcus pyogenes; test: Antimicrobial activity against Streptococcus pyogenes MTCC 442 after 24 and 48 hr by serial broth dilution method; assay type: functional
Quick reference for MIC among some molecules
Report the figure in µg/mL without appending any unit label.

// known answers, use as guide
>  <Molecule>
O=C(/C=C/c1ccc(O)cc1)N1N=C(c2ccc([N+](=O)[O-])cc2)OC1c1cc2ccccc2nc1Cl (stereo not drawn)

>  <MIC, µg/mL>
500

$$$$
>  <Molecule>
O=C(/C=C/c1ccc(Cl)cc1)N1N=C(c2ccc([N+](=O)[O-])cc2)OC1c1cc2ccccc2nc1Cl (stereo not drawn)

>  <MIC, µg/mL>
500

$$$$

Qu. Any idea what MIC was measured for CC1(C)S[C@@H]2[C@H](NC(=O)[C@H](N)c3ccccc3)C(=O)N2[C@H]1C(=O)O ?
Ans. 100

Cited source for all entries: ChEMBL document CHEMBL3045236
